Reported DC50 values follow for various molecules
TEST_TARGET: IRAK4 (Homo sapiens, UniProt Q9NWZ3)
Construct: endogenous in cells; host or cells: OCI-LY10
PROTOCOL_NOTES: IRAK4 MSD Degradation in OCI-LY10
Type: cell-based
CONDITION_PARAMETERS: OCI-LY10 cells, Meso Scale Discovery, incubated 4 to 24 hours
Experimental: Degradation of IRAK4 in OCI-LY10 was quantitatively measured using Meso Scale Discovery technology. OCI-LY10 cells were seeded in 96-well plates (Corning 3799) with a density of 300,000 cells per well in 100 μL fresh media. […] The assay plates were then incubated at room temperature for 1 hour, washed 3 times with 150 μL/well TBST buffer, and 150 μL/well MSD reading buffer (Meso Scale Discovery catalog number R92TC-2) was added. […]
OBSERVED_PROPERTY: DC50

MOLECULE	RESULT
CN(C[C@H]1CC[C@H](n2cc3cc(NC(=O)c4cccc(C(F)(F)F)n4)ncc3n2)CC1)C1CCN(c2ccc3c(N4CCC(=O)NC4=O)cncc3c2)CC1	100 to 200 nM
COc1ccc2c(c1C1CCN(C[C@H]3CC[C@H](n4cc5cc(NC(=O)c6cncc(Cl)c6)ccc5n4)CC3)CC1)n(C)c(=O)n2C1CCC(=O)NC1=O (stereo partly shown)	100 to 200 nM
COc1cc2nn([C@H]3C[C@H](CN(C)C4CCN(c5cccc6c5n(C)c(=O)n6C5CCC(=O)NC5=O)CC4)C3)cc2cc1NC(=O)c1cccc(C(F)(F)F)n1 (stereo partly shown)	< 10 nM
O=C1CCN(c2cncc3cc(C4CCN(C[C@H]5CC[C@H](n6cc7cc(NC(=O)c8cccc(C(F)(F)F)n8)ncc7n6)CC5)CC4)ccc23)C(=O)N1	> 200 nM
COc1cc2nn([C@H]3CC[C@H](CN4CCN(c5cccc6c5n(C)c(=O)n6C5CCC(=O)NC5=O)CC4)CC3)cc2cc1NC(=O)c1ccnc(C(F)(F)F)n1 (stereo partly shown)	< 10 nM
Cn1c(=O)n(C2CCC(=O)NC2=O)c2ccc(F)c(C3CCN(C[C@H]4C[C@H](n5cc6cc(NC(=O)c7cccc(C(F)(F)F)n7)c(Cl)cc6n5)C4)CC3)c21 (stereo partly shown)	10 to 50 nM
Cc1cc2nn([C@H]3CC[C@H](CN4CCN(c5cccc6c(N7CCC(=O)NC7=O)cncc56)CC4)CC3)cc2cc1NC(=O)c1cccc(C(F)(F)F)n1	10 to 50 nM
COc1cc2nn([C@H]3CC[C@H](CN(C)C4CCN(c5cccc6c(N7CCC(=O)NC7=O)cncc56)CC4)CC3)cc2cc1NC(=O)c1cncc(Cl)c1	50 to 100 nM
CN(Cc1ccc(-n2cc3cc(NC(=O)c4cccc(C(F)(F)F)n4)c(C(C)(C)O)cc3n2)cc1)[C@H]1CC[C@H](Nc2cccc3c2C(=O)N(C2CCC(=O)NC2=O)C3=O)CC1 (stereo partly shown)	10 to 50 nM
CN(CCCN(C)[C@H]1C[C@H](Nc2cccc3c2C(=O)N(C2CCC(=O)NC2=O)C3=O)C1)C[C@H]1CC[C@H](n2cc3cc(NC(=O)c4cccc(C(F)(F)F)n4)c(C(C)(C)O)cc3n2)CC1 (stereo partly shown)	10 to 50 nM
COc1cc2nn([C@H]3CC[C@H](CN4CCC(c5cccc6c5n(C)c(=O)n6C5CCC(=O)NC5=O)CC4)CC3)cc2cc1NC(=O)c1cc(F)cc(C(F)(F)F)c1 (stereo partly shown)	< 10 nM
COc1cc2nn([C@H]3CC[C@H](CN4CCC(c5c(C)ccc6c5n(C)c(=O)n6C5CCC(=O)NC5=O)CC4)CC3)cc2cc1NC(=O)c1cccc(C(F)(F)F)n1 (stereo partly shown)	< 10 nM
Cn1c(=O)n(C2CCC(=O)NC2=O)c2cccc(C3CCN(C[C@H]4CC[C@H](n5cc6cc(NC(=O)c7cncc(C(F)(F)F)n7)c(F)cc6n5)CC4)CC3)c21 (stereo partly shown)	< 10 nM
O=C1CCN(c2cncc3c(C4CCN(C[C@H]5CC[C@H](c6nc7ccc(NC(=O)c8cccc(C(F)(F)F)n8)cc7s6)CC5)CC4)cccc23)C(=O)N1	> 200 nM
CN(CCCCNc1cccc2c1C(=O)N(C1CCC(=O)NC1=O)C2=O)C[C@H]1CC[C@H](c2nc3cc(C(C)(C)O)c(NC(=O)c4cccc(C#N)n4)cc3s2)CC1 (stereo partly shown)	< 10 nM
COc1cc2nn([C@H]3CC[C@H](CN4CCN(c5cccc6c5n(C)c(=O)n6C5CCC(=O)NC5=O)CC4)CC3)cc2cc1NC(=O)c1cccc(C(F)(F)F)c1F (stereo partly shown)	< 10 nM
COc1cncc(C(=O)Nc2cc3sc([C@H]4CC[C@H](CN(C)CCCNc5cccc6c5C(=O)N(C5CCC(=O)NC5=O)C6=O)CC4)nc3cc2OC)c1 (stereo partly shown)	> 200 nM
C[C@@H]1CN(c2cccc3c2n(C)c(=O)n3C2CCC(=O)NC2=O)CCN1C[C@H]1CC[C@H](n2cc3cc(NC(=O)c4cccc(C(F)(F)F)n4)c(C(C)(C)O)cc3n2)CC1 (stereo partly shown)	< 10 nM
Cn1c(=O)n(C2CCC(=O)NC2=O)c2cccc(C3CCN(C[C@H]4CC[C@H](n5cc6cc(NC(=O)c7nc(C(F)(F)F)cs7)ccc6n5)CC4)CC3)c21 (stereo partly shown)	< 10 nM
COc1cc2nc([C@H]3CC[C@H](CN(C)CCCCNc4cccc5c4C(=O)N(C4CCC(=O)NC4=O)C5=O)CC3)sc2cc1NC(=O)c1cncc(C#N)c1 (stereo partly shown)	> 200 nM
COc1cc2nn([C@H]3CC[C@H](CN4CC5(CN(Cc6cccc7c6n(C)c(=O)n7C6CCC(=O)NC6=O)C5)C4)CC3)cc2cc1NC(=O)c1cncc(C#N)c1 (stereo partly shown)	100 to 200 nM
Cn1c(=O)n(C2CCC(=O)NC2=O)c2cccc(N3CCN(C[C@H]4CC[C@H](n5cc6cc(NC(=O)c7cccc(C(F)(F)F)n7)c(C(=O)O)cc6n5)CC4)CC3)c21 (stereo partly shown)	10 to 50 nM

###

Reported DC50 values follow for various compounds
TEST_TARGET: IRAK4 (Homo sapiens, UniProt Q9NWZ3)
Construct: endogenous in cells; host or cells: OCI-LY10
Sequence (Q9NWZ3 1-460): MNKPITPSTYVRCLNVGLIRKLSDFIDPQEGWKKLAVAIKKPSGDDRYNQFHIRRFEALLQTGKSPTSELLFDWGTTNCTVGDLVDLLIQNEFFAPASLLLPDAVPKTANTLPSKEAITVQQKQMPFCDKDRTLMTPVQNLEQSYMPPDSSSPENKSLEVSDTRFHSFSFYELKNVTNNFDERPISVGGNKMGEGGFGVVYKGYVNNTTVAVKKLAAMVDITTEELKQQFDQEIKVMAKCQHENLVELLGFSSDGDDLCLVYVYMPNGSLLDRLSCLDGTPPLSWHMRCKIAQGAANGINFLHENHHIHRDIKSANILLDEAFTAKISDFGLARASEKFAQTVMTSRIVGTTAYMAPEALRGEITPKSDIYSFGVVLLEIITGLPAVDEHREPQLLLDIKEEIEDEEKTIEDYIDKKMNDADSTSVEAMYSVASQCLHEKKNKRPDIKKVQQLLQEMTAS
PROTOCOL_NOTES: IRAK4 MSD Degradation in OCI-LY10
Assay type: cell-based
CONDITION_PARAMETERS: OCI-LY10 cells, Meso Scale Discovery, incubated 4 to 24 hours
OBSERVED_PROPERTY: DC50

COMPOUND	RESULT
COc1cc2nn([C@H]3CC[C@@H](CN4CCN(CC#Cc5cccc6c5n(C)c(=O)n6C5CCC(=O)NC5=O)CC4)CC3)cc2cc1NC(=O)c1cccc(C(F)(F)F)n1 (stereo partly shown)	< 10 nM
COc1cc2nn([C@H]3C[C@@H](CN4CC(c5cccc6c5n(C)c(=O)n6C5CCC(=O)NC5=O)C4)C3)cc2cc1NC(=O)c1cccc(C(F)(F)F)n1 (stereo partly shown)	10 to 50 nM
CC(C)Nc1cc(-c2ccc3cc(C#N)cnn23)ncc1C(=O)N[C@H]1CC[C@H](CN2CCC(c3ccc4c(N5CCC(=O)NC5=O)cncc4c3)CC2)CC1	< 10 nM
Cc1cc2nn([C@H]3CC[C@H](CN4CCN(c5cccc6c5n(C)c(=O)n6C5CCC(=O)NC5=O)C[C@@H]4C)CC3)cc2cc1NC(=O)c1cccc(C(F)(F)F)n1 (stereo partly shown)	< 10 nM
Cn1c(=O)n(C2CCC(=O)NC2=O)c2cc(Cl)cc(C3CCN(C[C@H]4CC[C@H](n5cc6cc(NC(=O)c7cccc(C(F)(F)F)n7)c(F)cc6n5)CC4)CC3)c21 (stereo partly shown)	10 to 50 nM
COc1cc2nn([C@H]3CC[C@H](CN4CCN(c5cccc6c(N7CCC(=O)NC7=O)cncc56)CC4)CC3)cc2cc1NC(=O)c1cncc(C(F)(F)F)n1	< 10 nM
O=C1CCN(c2cncc3c(C4CCN(C[C@H]5CC[C@H](n6cc7cc(NC(=O)c8cccc(C(F)(F)F)n8)c(Cl)cc7n6)CC5)CC4)cccc23)C(=O)N1	10 to 50 nM
COc1cc2nn([C@H]3CC[C@H](CN4CCC(c5cccc6c5n(C)c(=O)n6C5CCC(=O)NC5=O)CC4)CC3)cc2cc1NC(=O)n1ccc2cccnc21 (stereo partly shown)	< 10 nM
CC(C)Nc1cc(-c2ccc3cc(C#N)cnn23)ncc1C(=O)N[C@H]1CC[C@H](CN2CCN(c3cccc4c(N5CCC(=O)NC5=O)cncc34)CC2)CC1	10 to 50 nM
COc1ccc2c(c1C1=CCN(C[C@H]3CC[C@H](n4cc5cc(NC(=O)c6cccc(C(F)(F)F)n6)ccc5n4)CC3)CC1)n(C)c(=O)n2C1CCC(=O)NC1=O (stereo partly shown)	< 10 nM
COc1ccc2c(c1C1CCN(C[C@H]3CC[C@H](n4cc5cc(NC(=O)c6cccc(C(F)(F)F)n6)c(F)cc5n4)CC3)CC1)n(C)c(=O)n2C1CCC(=O)NC1=O (stereo partly shown)	10 to 50 nM
COc1cc2nn([C@H]3CC[C@H](CN4CC=C(c5cccc6c5n(C)c(=O)n6C5CCC(=O)NC5=O)C4)CC3)cc2cc1NC(=O)c1cccc(C(F)(F)F)n1 (stereo partly shown)	< 10 nM
Cc1cccc(C(=O)Nc2cc3sc([C@H]4CC[C@H](CN5CCN(CCCNc6cccc7c6C(=O)N(C6CCC(=O)NC6=O)C7=O)[C@H](C)C5)CC4)nc3cc2C(C)(C)O)n1 (stereo partly shown)	10 to 50 nM
COc1cc2nn([C@H]3CC[C@H](CN4CCC5(CC4)CC(CCNc4cccc6c4C(=O)N(C4CCC(=O)NC4=O)C6=O)C5)CC3)cc2cc1NC(=O)c1cccc(C(F)(F)F)n1 (stereo partly shown)	50 to 100 nM
COc1cc2nn([C@H]3C[C@H](CN4CCC(c5c(F)ccc6c5n(C)c(=O)n6C5CCC(=O)NC5=O)CC4)C3)cc2cc1NC(=O)c1cccc(C(F)(F)F)n1 (stereo partly shown) [I-141]	10 to 50 nM
COc1cc2nn([C@H]3CC[C@H](CN4CCC(c5ccc6c(c5C)n(C)c(=O)n6C5CCC(=O)NC5=O)CC4)CC3)cc2cc1NC(=O)c1cccc(C(F)(F)F)n1 (stereo partly shown)	< 10 nM
COc1cc2nn([C@H]3CC[C@H](CN4C5CCC4CN(c4cccc6c4n(C)c(=O)n6C4CCC(=O)NC4=O)C5)CC3)cc2cc1NC(=O)c1cncc(C#N)c1 (stereo partly shown)	< 10 nM
CC(C)(O)c1cc2nc([C@H]3CC[C@H](C(=O)N4CCN(CCNc5cccc6c5C(=O)N(C5CCC(=O)NC5=O)C6=O)CC4)CC3)sc2cc1NC(=O)c1cncc(C#N)c1 (stereo partly shown)	> 200 nM
CC(C)Nc1cc(-n2ccc3cc(C#N)cnc32)ncc1-c1cn([C@H]2CC[C@H](CN3CCN(c4cccc5c(N6CCC(=O)NC6=O)cncc45)CC3)CC2)nn1	< 10 nM
CN(C)c1cc2nn([C@H]3CC[C@H](CN4CCC(c5cccc6c5n(C)c(=O)n6C5CCC(=O)NC5=O)CC4)CC3)cc2cc1NC(=O)c1cccc(C(F)(F)F)n1 (stereo partly shown)	< 10 nM
COc1cc2nn([C@H]3CC[C@H](CN4C5CCC4CN(c4cccc6c4n(C)c(=O)n6C4CCC(=O)NC4=O)C5)CC3)cc2cc1NC(=O)c1cccc(C(F)(F)F)n1 (stereo partly shown)	< 10 nM
COc1cc2nc([C@H]3C[C@H](CN4CCC(c5cccc6c5n(C)c(=O)n6C5CCC(=O)NC5=O)CC4)C3)sc2cc1NC(=O)c1cccc(C(F)(F)F)n1 (stereo partly shown)	50 to 100 nM

Data origin, for the record: patent US12150995B2
